Kindly supply the reported screen value values for the records listed here.
B1: GST-tagged USP8 MIT domain (1-142) [human] / Cadherin-1 863-877 peptide, cellulose-bound (SPOT array) [not stated] (parent complex)
chain 1: MPAVASVPKELYLSSSLKDLNKKTEVKPEKISTKSYVHSALKIFKTAEECRLDRDEERAYVLYMKYVTVYNLIKKRPDFKQQQDYFHSILGPGNIKKAVEEAERLSESLKLRYEEAEVRKKLEEKDRQEEAQRLQQKRQETG
chain 2: NEWGNRFKKLADMYG

variants of: B1; assay: SPOT array alanine scanning; read off a plot

Solved entries (count: 10):
| Variant Name | screen value |
| --- | --- |
| chain 2 L10A | ~-62% |
| chain 2 K8A | ~-65% |
| chain 2 A11G | ~-32% |
| chain 2 N1A | ~-9% |
| chain 2 K9A | ~-70% |
| chain 2 N5A | ~-34% |
| chain 2 D12A | ~-56% |
| chain 2 M13A | ~-22% |
| chain 2 F7A | ~-100% |
| chain 2 G4A | ~-39% |

// for each variant in input: emit screen value
1. chain 2 G15A
2. chain 2 W3A
3. chain 2 E2A
4. chain 2 Y14A
5. chain 2 R6A

[out]
["~-57%", "~-100%", "~-57%", "~-44%", "~-98%"]

Hello, the source for this data is paper PMC12057046, in case you need it.
